# Test system: Bifidobacterium longum subsp. longum
# ASSAY_REMARKS: growth AUC relative to DMSO control (median of replicates) (fraction); higher = more growth (less inhibition), active = hit call of the paper
# RECORDED_CONDITIONS: 20 µM; 24 h
Listed here: items and their measured growth AUC.
PARAMETER_MEASURED: growth AUC

• O=C(O)COc1cc(Cl)c(Cl)cc1Cl = 0.708
• CCOc1cc(OP(=S)(OC)OC)nc(CC)n1 = 1.01
• COP(=S)(OC)Oc1ccc([N+](=O)[O-])c(C)c1 = 1.04
• C=C/C=C/CC1=C(C)C(OC(=O)[C@@H]2C(/C=C(\C)C(=O)OC)C2(C)C)CC1=O.C=C/C=C/CC1=C(C)[C@@H](OC(=O)[C@@H]2C(C=C(C)C)C2(C)C)CC1=O (stereo not given in full) = 0.698
• COc1cccc(C(=O)NN(C(=O)c2cc(C)cc(C)c2)C(C)(C)C)c1C = 0.975
• CCC(C)(CC)c1cc(NC(=O)c2c(OC)cccc2OC)on1 = 1.04
• Clc1ccc(C(c2ccc(Cl)cc2)C(Cl)Cl)cc1 = 1.06
• CCCCN(CC)c1c([N+](=O)[O-])cc(C(F)(F)F)cc1[N+](=O)[O-] = 1.01
• C=CCN=C=S = 0.999
• Cc1ccccc1C(=O)Nc1cccc(OC(C)C)c1 = 1.02

====

# Test system: Bacteroides stercoris
# ASSAY_REMARKS: growth AUC relative to DMSO control (median of replicates) (fraction); higher = more growth (less inhibition), active = hit call of the paper
# RECORDED_CONDITIONS: 20 µM; 24 h
PARAMETER_MEASURED: growth AUC

* Cn1cc(-c2ccccc2)c(=O)c(-c2cccc(C(F)(F)F)c2)c1 | 1.06
* CC1(C)C(C(=O)OC(C#N)c2cccc(Oc3ccccc3)c2)C1(C)C (configuration not stated) | 0.946
* CNC(=O)CSP(=O)(OC)OC | 1.04
* CNC(=O)ON=C(CSC)C(C)(C)C | 1
* COP(=S)(OC)Oc1ccc([N+](=O)[O-])c(Cl)c1 | 0.973
* Oc1c(Cl)ccc(Cl)c1Cl | 1.15
* CCCN(CCC)c1c([N+](=O)[O-])cc(C(F)(F)F)cc1[N+](=O)[O-] | 1.05
* CCOP(=S)(OCC)Oc1cc(Cl)c(Br)cc1Cl | 0.953
* ClC1=C(Cl)[C@]2(Cl)[C@@H]3[C@@H]4C[C@@H]([C@H]5O[C@@H]45)[C@@H]3[C@@]1(Cl)C2(Cl)Cl | 0.947
* CC(Oc1ccc(Oc2ccc(Cl)cc2Cl)cc1)C(=O)O (racemic) | 0.851
* CCOP(=S)(OCC)Oc1nc(Cl)n(C(C)C)n1 | 1.14
* CS(=O)(=O)c1ccc(C(=O)C2C(=O)CCCC2=O)c(Cl)c1COCC(F)(F)F | 1.02

====

# Test system: Escherichia coli IAI1
# ASSAY_REMARKS: growth AUC relative to DMSO control (median of replicates) (fraction); higher = more growth (less inhibition), active = hit call of the paper
# RECORDED_CONDITIONS: 20 µM; 24 h
Quick rule: growth AUC of at least 1 means Yes, below that means No.

* O=c1oc2ccccc2c(O)c1C1CC(c2ccc(-c3ccccc3)cc2)Cc2ccccc21 (configuration not stated) | No
* CNC(=O)Oc1cc(C)c(SC)c(C)c1 | No
* O=C(O)c1cc(Oc2ccc(C(F)(F)F)cc2Cl)ccc1[N+](=O)[O-] | No
* Oc1ccc(Cl)cc1Cc1cc(Cl)ccc1O | No
* CCOP(=O)(OCC)ON1C(=O)c2cccc3cccc(c23)C1=O | No
* CCCCOC(=O)[C@@H](C)Oc1ccc(Oc2ccc(C#N)cc2F)cc1 | No
* Cn1cc(-c2ccccc2)c(=O)c(-c2cccc(C(F)(F)F)c2)c1 | No
* CCCCc1c(C)nc(N(C)C)[nH]c1=O | No
* CCCCOCN(C(=O)CCl)c1c(CC)cccc1CC | Yes
* O=C(NC(=O)c1ccccc1Cl)Nc1ccc(OC(F)(F)F)cc1 | No
* CCC(C)n1c(=O)[nH]c(C)c(Br)c1=O (configuration not stated) | No
* C#CCN1CC(=O)N(COC(=O)C2C(C=C(C)C)C2(C)C)C1=O (mixture of isomers) | No
* CCNc1nc(Cl)nc(NCC)n1 | Yes
* CN(C)C(CSC(N)=O)CSC(N)=O.Cl | Yes
* OC(Cc1ccccc1Cl)(Cn1cncn1)C1(Cl)CC1 (configuration not stated) | No
* CCCN(CCC)c1c([N+](=O)[O-])cc(S(C)(=O)=O)cc1[N+](=O)[O-] | No

====

# System: Bacteroides stercoris
# ASSAY_REMARKS: growth AUC relative to DMSO control (median of replicates) (fraction); higher = more growth (less inhibition), active = hit call of the paper
# RECORDED_CONDITIONS: 20 µM; 24 h
Quick rule: growth AUC of at least 1 means true, below that means false.

• COP(=O)(OC)OC=C(Cl)Cl = true
• CCOC(=O)c1cn2nc(OP(=S)(OCC)OCC)cc2nc1C = false
• CC(Cc1ccc(C(C)(C)C)cc1)CN1CCCCC1 (stereo not given) = true
• CCCCCCCCCCCCCN1CC(C)OC(C)C1 (stereo not given) = true
• O=C(O)c1ccccc1C(=O)Nc1cccc2ccccc12 = true
• CC(C)(C)[C@@H](O)[C@H](Oc1ccc(Cl)cc1)n1cncn1 = true
• CC(C)=CC1C(C(=O)OCc2coc(Cc3ccccc3)c2)C1(C)C (stereo not given) = false
• CN=C=S = true
• Oc1ccccc1-c1ccccc1 = true
• C#CCOS(=O)OC1CCCCC1Oc1ccc(C(C)(C)C)cc1 (mixture of isomers) = false
• O=C1C(Cl)=C(Cl)C(=O)C(Cl)=C1Cl = false
• COC(=O)N(OC)c1ccccc1COc1ccn(-c2ccc(Cl)cc2)n1 = true
• COP(=S)(OC)Oc1cc(Cl)c(Br)cc1Cl = true
• CCOP(=S)(OCC)Oc1cc(Cl)c(SC)cc1Cl = true
• CCS(=O)(=O)Cc1ccccc1OC(=O)NC = true
• Clc1ccc(Cl)c(Cl)c1Cl = true
• CCCC(Cn1cncn1)c1ccc(Cl)cc1Cl (stereo not given) = true
• CNC(=O)O/N=C(\C)C(C)S(C)(=O)=O (stereo not given) = false
• CCN(CC)N=O = true
• COC(=O)C(Cl)Cl = true
• Nc1c([N+](=O)[O-])ccc(Oc2ccccc2)c1Cl = false
• CCOC(=O)COc1cc(-c2nn(C)c(OC(F)F)c2Cl)c(F)cc1Cl = false
• Oc1ccccc1Cl = true
• O=[N+]([O-])c1c(Cl)c(Cl)cc(Cl)c1Cl = true
• CN(C)C(=O)Nc1cccc(C(F)(F)F)c1 = false
• CCCN(CC)CC1COC2(CCC(C(C)(C)C)CC2)O1 (stereo not given) = false
• COP(=S)(OC)Oc1cc(Cl)c(Cl)cc1Cl = true
• O=[N+]([O-])NC1=NCOCN1Cc1cnc(Cl)s1 = true
• CCCN(CCC)c1c([N+](=O)[O-])cc(S(N)(=O)=O)cc1[N+](=O)[O-] = false
• CCCCCCCCCc1ccc(O)cc1 = false
• COc1cc(OC)nc(NC(=O)NS(=O)(=O)c2cc(NC=O)ccc2C(=O)N(C)C)n1 = true
• CCOC(=O)Nc1cccc(OC(=O)Nc2ccccc2)c1 = false
• Cc1cc(Cl)ccc1OCC(=O)O = false
• CCCN(CCC)c1c([N+](=O)[O-])cc(S(C)(=O)=O)cc1[N+](=O)[O-] = false
• N#Cc1cc(Br)c(O)c(Br)c1 = false
• O=C1C=C(N(Cc2ccc(Cl)nc2)CC(F)F)CO1 = true
• CNC(=O)O/N=C(\SC)C(=O)N(C)C = true
• CSc1nnc(C(C)(C)C)c(=O)n1N = true

====

# Test system: Coprococcus comes
# ASSAY_REMARKS: growth AUC relative to DMSO control (median of replicates) (fraction); higher = more growth (less inhibition), active = hit call of the paper
# RECORDED_CONDITIONS: 20 µM; 24 h
PARAMETER_MEASURED: growth AUC

* CC(C)N(Cc1ccccc1)C(=O)C(C)(C)C | 0.988
* CCSC(=O)N1CCCCCC1 | 1.02
* COc1nc(C)nc(NC(=O)NS(=O)(=O)c2ccccc2Cl)n1 | 0.971
* COc1cc(OC)nc(NC(=O)[N-]S(=O)(=O)c2ncccc2OCC(F)(F)F)n1.[Na+] | 0.957
* CNC(=O)/C(=N\OC)c1ccccc1Oc1ccccc1 | 1.01
* OCC1C(CO)C2(Cl)C(Cl)=C(Cl)C1(Cl)C2(Cl)Cl (stereo unspecified) | 0.934
* CC(Oc1ccc(Oc2ncc(C(F)(F)F)cc2Cl)cc1)C(=O)O (stereo unspecified) | 0.99
* COCC(=O)N(c1c(C)cccc1C)[C@H](C)C(=O)OC | 1.04
* CC1=C(C(=O)Nc2ccccc2)SCCO1 | 0.998
* Cc1cc(Cl)ccc1OCC(=O)O | 1.02
* O=C(NC(=O)c1c(F)cccc1F)Nc1cc(Cl)c(OC(F)(F)C(F)F)c(Cl)c1 | 0.96
